# Lookup of reported IC50 keyed by entry
- Tested on: 494315-158-R-J1-PDC complex spheroid growth, percent test/control;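 further: compound exposure lasted seven days after spheroids formed for three days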
- assayInfo: Anticancer human tumor 494315-158-R-J1-PDC patient-derived soft tissue sarcoma cell line growth inhibition [Asc]
- experimentalConditions: curve of first compound; second compound 0.0949 µM

>  <compound>
CNC(C)C(=O)NC1CN(S(=O)(=O)c2cccc(S(=O)(=O)N3CCC4CCC(C(=O)NC(c5ccccc5)c5ccccc5)N4C(=O)C(NC(=O)C(C)NC)C3)c2)CCC2CCC(C(=O)NC(c3ccccc3)c3ccccc3)N2C1=O (configuration not stated) + CCN1C(C(=O)NC23CCC(C(=O)O)(CC2)CC3)C(c2cccc(Cl)c2F)C2(C(=O)Nc3cc(Cl)ccc32)C12CCCCC2

>  <unitDescriptor>
nM

>  <inequalitySign>
=

>  <IC50>
38.1

$$$$
>  <compound>
CCN1CCN(Cc2ccc(Nc3ncc(F)c(-c4cc(F)c5nc(C)n(C(C)C)c5c4)n3)nc2)CC1 + CCN1C(C(=O)NC23CCC(C(=O)O)(CC2)CC3)C(c2cccc(Cl)c2F)C2(C(=O)Nc3cc(Cl)ccc32)C12CCCCC2

>  <unitDescriptor>
nM

>  <inequalitySign>
>

>  <IC50>
1000

$$$$
>  <compound>
NC1CCC(NC2CC2c2ccccc2)CC1 (configuration not stated) + CCN1C(C(=O)NC23CCC(C(=O)O)(CC2)CC3)C(c2cccc(Cl)c2F)C2(C(=O)Nc3cc(Cl)ccc32)C12CCCCC2

>  <unitDescriptor>
nM

>  <inequalitySign>
>

>  <IC50>
100

$$$$
>  <compound>
C#Cc1c(F)ccc2cc(O)cc(-c3ncc4c(N5CC6CCC(C5)N6)nc(OCC56CCCN5CC(F)C6)nc4c3F)c12 (configuration not stated) + CCN1C(C(=O)NC23CCC(C(=O)O)(CC2)CC3)C(c2cccc(Cl)c2F)C2(C(=O)Nc3cc(Cl)ccc32)C12CCCCC2

>  <unitDescriptor>
nM

>  <inequalitySign>
>

>  <IC50>
10000

$$$$
>  <compound>
C=C(F)C(=O)N1CCN(c2nc(OCC3CCCN3C)nc3c2CCN(c2cccc4cccc(Cl)c24)C3)CC1CC#N (configuration not stated) + CCN1C(C(=O)NC23CCC(C(=O)O)(CC2)CC3)C(c2cccc(Cl)c2F)C2(C(=O)Nc3cc(Cl)ccc32)C12CCCCC2

>  <unitDescriptor>
nM

>  <inequalitySign>
=

>  <IC50>
3180

$$$$
>  <compound>
NC(=O)C(=Cn1cnc(-c2cc(C(F)(F)F)cc(C(F)(F)F)c2)n1)c1cncnc1 + CCN1C(C(=O)NC23CCC(C(=O)O)(CC2)CC3)C(c2cccc(Cl)c2F)C2(C(=O)Nc3cc(Cl)ccc32)C12CCCCC2

>  <unitDescriptor>
nM

>  <inequalitySign>
=

>  <IC50>
52.4

$$$$
>  <compound>
C=CC(=O)N1CCN(c2nc(=O)n(-c3c(C)ccnc3C(C)C)c3nc(-c4c(O)cccc4F)c(F)cc23)C(C)C1 (configuration not stated) + CCN1C(C(=O)NC23CCC(C(=O)O)(CC2)CC3)C(c2cccc(Cl)c2F)C2(C(=O)Nc3cc(Cl)ccc32)C12CCCCC2

>  <unitDescriptor>
nM

>  <inequalitySign>
>

>  <IC50>
10000

$$$$
>  <compound>
O=C(c1ccc(F)c(F)c1Nc1ccc(I)cc1F)N1CC(O)([C@@H]2CCCCN2)C1 + CCN1C(C(=O)NC23CCC(C(=O)O)(CC2)CC3)C(c2cccc(Cl)c2F)C2(C(=O)Nc3cc(Cl)ccc32)C12CCCCC2

>  <unitDescriptor>
nM

>  <inequalitySign>
>

>  <IC50>
1000

$$$$
>  <compound>
Cc1nc(N2CCC3(CC2)COC(C)C3N)c(CO)nc1Sc1ccnc(N)c1Cl (configuration not stated) + CCN1C(C(=O)NC23CCC(C(=O)O)(CC2)CC3)C(c2cccc(Cl)c2F)C2(C(=O)Nc3cc(Cl)ccc32)C12CCCCC2

>  <unitDescriptor>
nM

>  <inequalitySign>
=

>  <IC50>
1430

$$$$
>  <compound>
O=C(c1cc(Cc2n[nH]c(=O)c3ccccc23)ccc1F)N1CCN(C(=O)C2CC2)CC1 + CCN1C(C(=O)NC23CCC(C(=O)O)(CC2)CC3)C(c2cccc(Cl)c2F)C2(C(=O)Nc3cc(Cl)ccc32)C12CCCCC2

>  <unitDescriptor>
nM

>  <inequalitySign>
>

>  <IC50>
10000

$$$$
>  <compound>
COc1c(OCCCN2CCOCC2)ccc2c3n(c(=NC(=O)c4cnc(N)nc4)nc12)CCN3 + CCN1C(C(=O)NC23CCC(C(=O)O)(CC2)CC3)C(c2cccc(Cl)c2F)C2(C(=O)Nc3cc(Cl)ccc32)C12CCCCC2

>  <unitDescriptor>
nM

>  <inequalitySign>
=

>  <IC50>
39

$$$$
>  <compound>
Cn1ncnc1[C@H]1c2n[nH]c(=O)c3cc(F)cc(c23)N[C@@H]1c1ccc(F)cc1 + CCN1C(C(=O)NC23CCC(C(=O)O)(CC2)CC3)C(c2cccc(Cl)c2F)C2(C(=O)Nc3cc(Cl)ccc32)C12CCCCC2

>  <unitDescriptor>
nM

>  <inequalitySign>
>

>  <IC50>
100

$$$$
